Would you kindly list pKi for each of these compounds?
- TESTED ON: PI3-kinase p110-alpha/p85-alpha (Homo sapiens, UniProt P42336)
- Sequence (P27986 whole entry): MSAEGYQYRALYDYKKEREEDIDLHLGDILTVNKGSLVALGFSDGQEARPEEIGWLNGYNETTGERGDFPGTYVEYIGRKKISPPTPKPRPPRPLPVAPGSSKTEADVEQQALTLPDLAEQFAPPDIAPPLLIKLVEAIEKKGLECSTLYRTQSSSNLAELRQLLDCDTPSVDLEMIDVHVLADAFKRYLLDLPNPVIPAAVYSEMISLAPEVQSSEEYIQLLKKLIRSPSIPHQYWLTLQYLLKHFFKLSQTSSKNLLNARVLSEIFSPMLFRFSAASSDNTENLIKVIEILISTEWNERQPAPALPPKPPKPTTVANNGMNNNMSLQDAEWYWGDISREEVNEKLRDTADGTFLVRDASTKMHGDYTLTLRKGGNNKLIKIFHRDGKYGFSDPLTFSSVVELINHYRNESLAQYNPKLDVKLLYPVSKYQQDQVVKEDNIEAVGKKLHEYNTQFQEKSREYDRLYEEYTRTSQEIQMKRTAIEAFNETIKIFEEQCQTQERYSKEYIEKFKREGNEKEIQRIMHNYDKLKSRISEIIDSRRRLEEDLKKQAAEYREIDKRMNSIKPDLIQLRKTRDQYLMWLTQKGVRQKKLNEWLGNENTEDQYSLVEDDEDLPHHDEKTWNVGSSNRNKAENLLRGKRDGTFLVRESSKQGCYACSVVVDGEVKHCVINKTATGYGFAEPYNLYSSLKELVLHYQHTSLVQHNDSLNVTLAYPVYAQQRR
- Sequence (P42336 whole entry): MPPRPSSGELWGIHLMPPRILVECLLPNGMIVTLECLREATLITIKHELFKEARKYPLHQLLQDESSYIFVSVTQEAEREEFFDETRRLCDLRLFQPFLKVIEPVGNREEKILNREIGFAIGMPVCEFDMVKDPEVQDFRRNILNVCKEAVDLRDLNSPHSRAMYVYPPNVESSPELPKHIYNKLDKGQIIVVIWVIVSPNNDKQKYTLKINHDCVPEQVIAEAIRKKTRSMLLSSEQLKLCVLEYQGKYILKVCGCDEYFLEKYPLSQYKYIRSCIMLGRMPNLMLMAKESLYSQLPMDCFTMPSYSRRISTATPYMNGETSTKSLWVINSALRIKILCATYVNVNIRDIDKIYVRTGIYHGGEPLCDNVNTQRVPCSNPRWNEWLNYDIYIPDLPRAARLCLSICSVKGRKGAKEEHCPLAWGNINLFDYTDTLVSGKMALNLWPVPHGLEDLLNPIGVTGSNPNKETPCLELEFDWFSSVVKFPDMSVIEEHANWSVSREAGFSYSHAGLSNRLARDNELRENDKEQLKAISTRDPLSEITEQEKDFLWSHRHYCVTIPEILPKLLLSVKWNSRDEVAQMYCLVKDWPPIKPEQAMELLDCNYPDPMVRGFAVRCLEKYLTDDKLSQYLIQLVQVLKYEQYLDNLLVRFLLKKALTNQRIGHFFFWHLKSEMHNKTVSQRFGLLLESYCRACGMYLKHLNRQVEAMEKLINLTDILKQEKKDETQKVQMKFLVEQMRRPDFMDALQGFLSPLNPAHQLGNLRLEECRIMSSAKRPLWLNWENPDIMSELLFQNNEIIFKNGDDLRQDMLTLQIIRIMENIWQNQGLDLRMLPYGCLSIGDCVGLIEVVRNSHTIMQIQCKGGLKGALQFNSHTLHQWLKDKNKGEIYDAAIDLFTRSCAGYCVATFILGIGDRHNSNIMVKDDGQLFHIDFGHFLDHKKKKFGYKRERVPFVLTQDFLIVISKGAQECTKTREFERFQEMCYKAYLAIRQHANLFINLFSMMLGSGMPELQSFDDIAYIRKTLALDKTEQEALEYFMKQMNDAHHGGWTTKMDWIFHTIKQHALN
- ASSAY SUMMARY: Inhibition of recombinant human full-length PI3K p110alpha/p85alpha (322 to 600) expressed in baculovirus infected Sf21 cells using phosphatidylinositol 4,5-bisphosphate as substrate preincubated for 15 mins followed by addition of ATP and measured after 30 mins by fluorescence polarisation assay
Quick note: pKi means taking -log10 of the concentration in moles per liter.

Data request: Entry `CS(=O)(=O)N1CC[C@H](N2CCc3c(-c4cnc(N)nc4)nc(N4CCOCC4)nc32)C1` has what pKi?
Data returned: 9.82

Data request: Another compound to check: `Nc1ncc(-c2nc(N3CCOCC3)nc3c2CCN3[C@H]2CCNC2)cn1`
Data returned: 8.68

Data request: Another compound to check: `CC(C)(N)C(=O)N1CC[C@](C)(N2CCc3c(-c4cnc(N)nc4)nc(N4CCOCC4)nc32)C1`
Data returned: 10.64

* * *

Would you kindly list pIC50 for each of these compounds?
- TESTED ON: Phosphatidylinositol 4,5-bisphosphate 3-kinase catalytic subunit alpha isoform (Homo sapiens)
- ASSAY SUMMARY: Inhibition of recombinant human N-terminal Myr signal and C-terminal Flag-tagged PI3K p110alpha expressed in rat Rat1 cells
Quick note: pIC50 means taking -log10 of the concentration in moles per liter.

Data request: Entry `COC(=O)N1CC[C@](CO)(Nc2cc(-c3cnc(N)nc3)nc(N3CCOCC3)n2)C1` has what pIC50?
Data returned: 7.04

Data request: Another compound to check: `Nc1ncc(-c2cc(N[C@@]3(CO)CCN(C(=O)OCC(F)F)C3)nc(N3CCOCC3)n2)cn1`
Data returned: 7.28

Data request: Another compound to check: `CC(C)(O)C(=O)N1CC[C@](C)(N2CCc3c(-c4cnc(N)nc4)nc(N4CCOCC4)nc32)C1`
Data returned: 7.28

Data request: Another compound to check: `C[C@]1(N2CCc3c(-c4cnc(N)nc4)nc(N4CCOCC4)nc32)CCN(S(C)(=O)=O)C1`
Data returned: 7.47

Data request: Another compound to check: `COC(=O)N1CC[C@](C)(N2CCc3c(-c4cnc(N)nc4)nc(N4CCOCC4)nc32)C1`
Data returned: 8.30

Data request: Another compound to check: `CS(=O)(=O)N1CC[C@](CO)(Nc2cc(-c3cnc(N)nc3)nc(N3CCOCC3)n2)C1`
Data returned: 5.89

Data request: Another compound to check: `Nc1ncc(-c2nc(N3CCOCC3)nc(N[C@@]3(CO)CCN(C(=O)OCC(F)F)C3)c2F)cn1`
Data returned: 7.74

Data request: Another compound to check: `CNC(=O)N1CC[C@](C)(N2CCc3c(-c4cnc(N)nc4)nc(N4CCOCC4)nc32)C1`
Data returned: 7.14

Data request: Another compound to check: `CC(C)C(=O)N1CC[C@](C)(N2CCc3c(-c4cnc(N)nc4)nc(N4CCOCC4)nc32)C1`
Data returned: 8.16

Data request: Another compound to check: `CNS(=O)(=O)N1CC[C@](C)(N2CCc3c(-c4cnc(N)nc4)nc(N4CCOCC4)nc32)C1`
Data returned: 7.57

Data request: Another compound to check: `CC(=O)N1CC[C@@](C)(N2CCc3c(-c4cnc(N)nc4)nc(N4CCOCC4)nc32)C1`
Data returned: 7.46

Data request: Another compound to check: `COC(=O)N1CC[C@](CO)(Nc2nc(N3CCOCC3)nc(-c3cnc(N)nc3)c2F)C1`
Data returned: 7.33

Data request: Another compound to check: `CC(C)(C)OC(=O)N1CC[C@](C)(Nc2cc(-c3cnc(N)nc3)nc(N3CCOCC3)n2)C1`
Data returned: 6.96

Data request: Another compound to check: `CNS(=O)(=O)N1CC[C@H](N2CCc3c(-c4cnc(N)nc4)nc(N4CCOCC4)nc32)C1`
Data returned: 6.89

Data request: Another compound to check: `CC(C)(N)C(=O)N1CC[C@](C)(N2CCc3c(-c4cnc(N)nc4)nc(N4CCOCC4)nc32)C1`
Data returned: 7.60

Data request: Another compound to check: `CC(C)(C)OC(=O)N1CC[C@](C)(N2CCc3c(-c4cnc(N)nc4)nc(N4CCOCC4)nc32)C1`
Data returned: 8.17
